# credit: paper PMC10221034

B1: wild-type rTpiA (recombinant Streptococcus pneumoniae D39 triosephosphate isomerase) [Streptococcus pneumoniae D39] / human plasma plasminogen [human] (parent complex)
chain 1: SRKPFIAGNWKMNKNPEEAKAFVEAVASKLPSSDLVEAGIAAPALDLTTVLAVAKGSNLKVAAQNCYFENAGAFTGETSPQVLKEIGTDYVVIGHSERRDYFHETDEDINKKAKAIFANGMLPIICCGESLETYEAGKAAEFVGAQVSAALAGLTAEQVAASVIAYEPIWAIGTGKSASQDDAQKMCKVVRDVVAADFGQEVADKVRVQYGGSVKPENVASYMACPDVDGALVGGASLEAESFLALLDFVK
chain 2: EPLDDYVNTQGASLFSVTKKQLGAGSIEECAAKCEEDEEFTCRAFQYHSKEQQCVIMAENRKSSIIIRMRDVVLFEKKVYLSECKTGNGKNYRGTMSKTKNGITCQKWSSTSPHRPRFSPATHPSEGLEENYCRNPDNDPQGPWCYTTDPEKRYDYCDILECEEECMHCSGENYDGKISKTMSGLECQAWDSQSPHAHGYIPSKFPNKNLKKNYCRNPDRELRPWCFTTDPNKRWELCDIPRCTTPPPSSGPTYQCLKGTGENYRGNVAVTVSGHTCQHWSAQTPHTHNRTPENFPCKNLDENYCRNPDGKRAPWCHTTNSQVRWEYCKIPSCDSSPVSTEQLAPTAPPELTPVVQDCYHGDGQSYRGTSSTTTTGKKCQSWSSMTPHRHQKTPENYPNAGLTMNYCRNPDADKGPWCFTTDPSVRWEYCNLKKCSGTEASVVAPPPVVLLPDVETPSEEDCMFGNGKGYRGKRATTVTGTPCQDWAAQEPHRHSIFTPETNPRAGLEKNYCRNPDGDVGGPWCYTTNPRKLYDYCDVPQCAAPSFDCGKPQVEPKKCPGRVVGGCVAHPHSWPWQVSLRTRFGMHFCGGTLISPEWVLTAAHCLEKSPRPSSYKVILGAHQEVNLEPHVQEIEVSRLFLEPTRKDIALLKLSSPAVITDKVIPACLPSPNYVVADRTECFITGWGETQGTFGAGLLKEAQLPVIENKVCNRYEFLNGRVQSTELCAGHLAGGTDSCQGDSGGPLVCFEKDKYILQGVTSWGLGCARPNKPGVYVRVSRFVTWIEGVMRNN

Variants of: B1
experiment summary: ELISA; rTpiA protein-coated microtiter plate; measured 60 min after substrate addition; n = 9; parent: 1.4; read off a plot
# reported response; entries follow

var: chain 1 K138A
response: ~1.3 A405

var: chain 1 K20A
response: ~1.3 A405

var: chain 1 K205A
response: ~1.3 A405
